# Test system: tobacco mosaic virus (TMV)
# assay.comment: Induction of resistance to tobacco mosaic virus in tobacco (foliar spray)
# Format: in vivo
# measurement.context: 20 μg/ml spray; uncovered leaf (local response)
reported.property: Effectiveness Uncovered (% decline in TMV lesions vs UTC) (%)
Form entry: value (%) — number only.

QTGDDSLSGAGQTSGMSPMEQLMKIFADITQSLFGDQ (P13-13 peptide) [Peptide P13-13] tested on tobacco mosaic virus (TMV) gave Effectiveness Uncovered (% decline in TMV lesions vs UTC): 36.6

Entry AGQTSGMSPMEQLMKIFADITQSLFGDQDG (P13-12 peptide) [Peptide P13-12] , tobacco mosaic virus (TMV) data, Effectiveness Uncovered (% decline in TMV lesions vs UTC) value: 44.1
